- Target or test system: SaCas9 (Staphylococcus aureus, UniProt J7RUA5)
- Sequence (J7RUA5 whole entry): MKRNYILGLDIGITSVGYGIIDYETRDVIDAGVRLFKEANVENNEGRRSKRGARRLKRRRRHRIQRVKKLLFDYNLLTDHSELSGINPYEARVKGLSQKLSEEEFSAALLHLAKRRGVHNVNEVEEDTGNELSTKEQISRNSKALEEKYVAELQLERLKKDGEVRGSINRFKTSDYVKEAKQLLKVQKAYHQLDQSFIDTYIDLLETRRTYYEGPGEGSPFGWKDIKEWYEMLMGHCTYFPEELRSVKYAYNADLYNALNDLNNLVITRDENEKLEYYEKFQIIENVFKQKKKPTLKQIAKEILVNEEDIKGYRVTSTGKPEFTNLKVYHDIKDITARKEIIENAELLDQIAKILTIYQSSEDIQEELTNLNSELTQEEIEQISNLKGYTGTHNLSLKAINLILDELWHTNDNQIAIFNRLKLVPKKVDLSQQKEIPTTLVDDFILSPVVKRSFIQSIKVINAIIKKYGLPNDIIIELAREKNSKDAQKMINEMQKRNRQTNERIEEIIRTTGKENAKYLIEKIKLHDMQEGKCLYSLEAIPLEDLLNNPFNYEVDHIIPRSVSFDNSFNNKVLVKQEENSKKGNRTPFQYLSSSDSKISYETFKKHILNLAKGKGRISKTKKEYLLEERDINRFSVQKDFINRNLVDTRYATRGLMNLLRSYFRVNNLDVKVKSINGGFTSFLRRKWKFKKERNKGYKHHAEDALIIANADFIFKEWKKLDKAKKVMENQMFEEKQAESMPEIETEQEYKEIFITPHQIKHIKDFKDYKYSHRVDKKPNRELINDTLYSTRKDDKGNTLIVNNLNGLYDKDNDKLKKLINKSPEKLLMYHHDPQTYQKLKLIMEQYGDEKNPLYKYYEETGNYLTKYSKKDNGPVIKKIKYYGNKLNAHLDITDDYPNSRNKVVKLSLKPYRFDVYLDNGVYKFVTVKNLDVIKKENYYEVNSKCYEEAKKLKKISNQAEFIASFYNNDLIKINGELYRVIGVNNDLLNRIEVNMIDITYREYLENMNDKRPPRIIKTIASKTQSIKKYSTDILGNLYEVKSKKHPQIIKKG
- Assay: Strand displacement assay, SaCas9 primary screen
- Format: biochemical
- Cond: SaCas9 primary screen, Auto Zscore, replicate 1
Entries and their Auto Zscore Rep 1

{"Compound": "Cc1cccc(Cn2c(SCC(O)CO)nc3c2c(=O)[nH]c(=O)n3C)c1 (centres unmarked)", "Auto Zscore Rep 1": "−0.346"}
{"Compound": "Nc1c(C(=O)N2CCCCC2)sc(=S)n1Cc1ccccc1", "Auto Zscore Rep 1": "−0.3436"}
{"Compound": "O=C1CC(c2ccc(O)c(O)c2)c2c(nc(SCc3ccccc3)[nH]c2=O)N1 (centres unmarked)", "Auto Zscore Rep 1": "−1.4647"}
{"Compound": "Cc1noc2c1C(c1ccc(O)c(O)c1)C1=C(CC(c3ccc(O)cc3)CC1=O)N2 (centres unmarked)", "Auto Zscore Rep 1": 0.6685}
{"Compound": "O=C(CSc1ccc2ccccc2c1)NCCc1ccc(O)c(O)c1", "Auto Zscore Rep 1": 0.8861}
{"Compound": "Cc1sc2c(c1C)CSC(C(=O)Nc1c(C)n(C)n(-c3ccccc3)c1=O)=C2", "Auto Zscore Rep 1": "−0.03529"}
{"Compound": "O=C(CSc1nnc2ccccn12)N1CCc2ccccc2C1", "Auto Zscore Rep 1": "−1.3165"}
{"Compound": "CCN(CCN(C)C)c1ncc(NS(=O)(=O)c2cc(C)c(C)cc2C)cc1C(=O)O", "Auto Zscore Rep 1": 2.129}
{"Compound": "O=C(NCCCN1CCC(N2CCCCC2)CC1)C1=Cc2sc3c(c2CS1)CCCC3", "Auto Zscore Rep 1": 1.567}
{"Compound": "Cc1noc2c1C(c1ccc(O)c(O)c1)C1=C(CC(c3ccccc3)CC1=O)N2 (centres unmarked)", "Auto Zscore Rep 1": 0.2858}
{"Compound": "O=C(O)c1cc(NS(=O)(=O)c2ccc3c(c2)CCCC3)cnc1N1CCCC1", "Auto Zscore Rep 1": 1.399}
{"Compound": "CN(C)S(=O)(=O)Nc1ccc(N2CCN(CC(=O)N3CCCC3)CC2)c(C(=O)O)c1", "Auto Zscore Rep 1": "−0.453"}
{"Compound": "CCN(Cc1ccccc1)c1ncc(NS(=O)(=O)CC)cc1C(=O)O", "Auto Zscore Rep 1": 1.342}
{"Compound": "CCN(Cc1ccccc1)c1ncc(NS(=O)(=O)c2cc(C)ccc2C)cc1C(=O)O", "Auto Zscore Rep 1": 2.149}
{"Compound": "Cc1c(NC(=O)C2=Cc3sc4c(c3CS2)CCCC4)c(=O)n(-c2ccccc2)n1C", "Auto Zscore Rep 1": "−0.3069"}
{"Compound": "CCN(Cc1ccccc1)c1ccc(NS(=O)(=O)c2cc(OC)ccc2OC)cc1C(=O)O", "Auto Zscore Rep 1": "−1.677"}
{"Compound": "Cc1cc(-c2nn3c(C(C)C)nnc3s2)no1", "Auto Zscore Rep 1": "−0.2589"}
{"Compound": "COc1ccc2cc3c(N)nn(C(=O)c4ccc(F)cc4)c3nc2c1", "Auto Zscore Rep 1": 0.8616}
{"Compound": "Cc1nc2ccccc2n1Cc1nnc2n1N=C(N)CS2", "Auto Zscore Rep 1": "−1.123"}
{"Compound": "Nc1c(C(=O)NCC2CCCO2)sc(=S)n1-c1ccc(Cl)cc1 (centres unmarked)", "Auto Zscore Rep 1": "−0.6285"}
{"Compound": "Cc1nn2c(=O)cc(COc3ccc(C)c(C)c3)nc2s1", "Auto Zscore Rep 1": 0.9351}
{"Compound": "Cc1cc(-c2nnc3sc(COc4ccccc4Cl)nn23)[nH]n1", "Auto Zscore Rep 1": 0.8719}
{"Compound": "NC(=O)c1sc(=S)n2c1[nH]c(=O)c1ccc(Cl)cc12", "Auto Zscore Rep 1": "−0.5214"}
{"Compound": "O=C(O)c1cc(NS(=O)(=O)c2cc(F)ccc2F)cnc1N1CCC(N2CCCCC2)CC1", "Auto Zscore Rep 1": "−0.1879"}
{"Compound": "CN1C(C(=O)Nc2sc3c(c2C(N)=O)CCCC3)=CC(c2ccc(F)cc2)=NS1(=O)=O", "Auto Zscore Rep 1": 0.3653}
{"Compound": "CC1(C(=O)NC2CCCCC2)Cn2c(cc3ccccc32)C(=O)N1c1ccc2c(c1)OCCO2 (centres unmarked)", "Auto Zscore Rep 1": 1.418}
{"Compound": "CCN(Cc1ccccc1)c1ncc(NS(=O)(=O)c2ccccc2)cc1C(=O)O", "Auto Zscore Rep 1": 1.668}
{"Compound": "NS(=O)(=O)c1ccc(CCNC(=O)C2=Cc3sc4c(c3CS2)CCCC4)cc1", "Auto Zscore Rep 1": 0.2247}
{"Compound": "Cc1ccccc1OCc1nn2c(C(C)(C)C)nnc2s1", "Auto Zscore Rep 1": "−0.02144"}
{"Compound": "CN(C)c1ncc(NS(=O)(=O)c2ccc(F)c(F)c2)cc1C(=O)O", "Auto Zscore Rep 1": 1.676}
{"Compound": "CCN(Cc1ccccc1)c1ccc(NS(=O)(=O)c2c(C)cc(C)cc2C)cc1C(=O)O", "Auto Zscore Rep 1": "−0.1185"}
{"Compound": "CN(C)S(=O)(=O)Nc1ccc(N2CCC(CCN3CCOCC3)CC2)c(C(=O)O)c1", "Auto Zscore Rep 1": "−2.121"}
{"Compound": "CCS(=O)(=O)Nc1cnc(N(C)CCCc2c(C)nn(C)c2C)c(C(=O)O)c1", "Auto Zscore Rep 1": "−0.5672"}
{"Compound": "COCCCNC(=O)CN1CCN(c2ccc(C(=O)O)cc2NC(=O)c2ccccc2Cl)CC1", "Auto Zscore Rep 1": "−0.0657"}
{"Compound": "Cc1ccc(CSc2nc3c(c(=O)[nH]2)C(c2ccc(O)c(O)c2)CC(=O)N3)cc1 (centres unmarked)", "Auto Zscore Rep 1": "−0.4729"}
